Origin of values: ChEMBL document CHEMBL1132870

- study.target: Coagulation factor X (Oryctolagus cuniculus) (UniProt O19045)
- Sequence (whole entry): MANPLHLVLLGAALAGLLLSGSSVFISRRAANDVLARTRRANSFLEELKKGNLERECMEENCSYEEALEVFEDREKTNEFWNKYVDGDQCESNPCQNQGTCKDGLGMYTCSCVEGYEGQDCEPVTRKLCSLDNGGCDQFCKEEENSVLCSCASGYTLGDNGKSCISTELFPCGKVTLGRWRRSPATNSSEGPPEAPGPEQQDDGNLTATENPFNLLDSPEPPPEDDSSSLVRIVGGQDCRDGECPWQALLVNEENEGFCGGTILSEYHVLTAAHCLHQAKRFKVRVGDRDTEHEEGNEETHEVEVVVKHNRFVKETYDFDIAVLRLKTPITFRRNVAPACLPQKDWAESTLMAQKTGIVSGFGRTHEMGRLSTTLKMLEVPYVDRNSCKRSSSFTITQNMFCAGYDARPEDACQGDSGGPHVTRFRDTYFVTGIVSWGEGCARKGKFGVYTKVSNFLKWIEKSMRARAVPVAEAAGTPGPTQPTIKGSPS
- assay.text: Inhibitory activity against coagulation factor X at a concentration of 1 uM
attribute.measured: inhibition (%)

Before answering, review these 2 worked examples.
| record.smiles | study.target | inhibition, % |
| --- | --- | --- |
| O=C1[C@@H](NS(=O)(=O)c2ccc(-c3ccncc3)s2)CCN1CCNc1ccncc1 | Coagulation factor X (Oryctolagus cuniculus) (UniProt O19045) | 41 |
| O=C1[C@@H](NS(=O)(=O)c2cc3cccnc3s2)CCN1Cc1cc2[nH]cccc-2n1 | Coagulation factor X (Oryctolagus cuniculus) (UniProt O19045) | 44 |

a. O=C1[C@@H](NS(=O)(=O)c2ccc(-c3ccccn3)s2)CCN1Cc1cc2cc[nH]cc-2n1
b. O=C1[C@@H](NS(=O)(=O)c2ccc(-c3ccc(Cl)s3)s2)CCN1Cc1cc2[nH]cccc-2n1
c. O=C1[C@@H](NS(=O)(=O)c2ccc(-c3ccccn3)s2)CCN1Cc1cc2c[nH]ccc-2n1
d. O=C1[C@@H](NS(=O)(=O)c2cc3ccnc(Cl)c3s2)CCN1Cc1cc2c[nH]ccc-2n1
Prompt: Ascending sort, inhibition. Give the labels in the order specified.
Response: c, a, d, b
(c: 11%, a: 17%, d: 25%, b: 42%)

a. O=C1[C@@H](NS(=O)(=O)c2cc3cccnc3s2)CCN1Cc1cc2c[nH]ccc-2n1
b. O=C1[C@@H](NS(=O)(=O)c2ccc(-c3ccncc3)s2)CCN1Cc1cc2[nH]cccc-2n1
c. O=C1[C@@H](NS(=O)(=O)c2ccc(-c3ccccn3)s2)CCN1Cc1cc2[nH]cccc-2n1
d. CC(C)(C)c1ccc(S(=O)(=O)N[C@H]2CCN(Cc3cc4cc[nH]cc-4n3)C2=O)cc1
Prompt: Ascending sort, inhibition. Give the labels in the order specified.
Response: c, a, b, d
(c: 8%, a: 18%, b: 35%, d: 57%)

###

- study.target: Coagulation factor X (Oryctolagus cuniculus) (UniProt O19045)
- Sequence (whole entry): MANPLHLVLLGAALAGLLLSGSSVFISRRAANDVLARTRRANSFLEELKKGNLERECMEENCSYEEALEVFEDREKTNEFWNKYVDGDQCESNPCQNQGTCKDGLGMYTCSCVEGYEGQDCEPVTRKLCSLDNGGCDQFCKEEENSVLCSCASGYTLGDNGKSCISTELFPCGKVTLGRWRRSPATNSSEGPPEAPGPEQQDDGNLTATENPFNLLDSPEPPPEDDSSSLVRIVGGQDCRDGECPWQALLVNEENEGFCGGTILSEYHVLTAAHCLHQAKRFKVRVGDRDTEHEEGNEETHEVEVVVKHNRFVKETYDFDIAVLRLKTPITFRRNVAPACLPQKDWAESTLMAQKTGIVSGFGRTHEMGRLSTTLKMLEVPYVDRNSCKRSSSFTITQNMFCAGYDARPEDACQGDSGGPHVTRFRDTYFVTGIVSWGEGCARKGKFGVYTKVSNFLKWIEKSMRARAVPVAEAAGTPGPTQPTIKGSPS
- assay.text: Inhibitory activity against coagulation factor X at a concentration of 1 uM
attribute.measured: inhibition (%)

| record.smiles | unit.string | inhibition |
| --- | --- | --- |
| O=C1[C@@H](NS(=O)(=O)c2ccc(-c3ccon3)s2)CCN1Cc1cc2c[nH]ccc-2n1 | % | 17 |
| O=C1[C@@H](NS(=O)(=O)c2cc3ccnc(Cl)c3s2)CCN1CCNc1ccncc1 | % | 23 |
| O=C1[C@@H](NS(=O)(=O)c2ccc(-c3ccncc3)s2)CCN1Cc1cc2cc[nH]cc-2n1 | % | 50 |

a. O=C1[C@@H](NS(=O)(=O)c2cc3ccc(Cl)nc3s2)CCN1Cc1cc2cc[nH]cc-2n1
b. CC(C)(C)c1ccc(S(=O)(=O)N[C@H]2CCN(Cc3cc4c[nH]ccc-4n3)C2=O)cc1
Prompt: // returns a or b , whichever has the lower inhibition Please indicate the selected item by its label.
Response: b
